# Ki per record follows
Molecular target: Homoserine kinase (Escherichia coli (strain K12))
Sequence (P00547 whole entry): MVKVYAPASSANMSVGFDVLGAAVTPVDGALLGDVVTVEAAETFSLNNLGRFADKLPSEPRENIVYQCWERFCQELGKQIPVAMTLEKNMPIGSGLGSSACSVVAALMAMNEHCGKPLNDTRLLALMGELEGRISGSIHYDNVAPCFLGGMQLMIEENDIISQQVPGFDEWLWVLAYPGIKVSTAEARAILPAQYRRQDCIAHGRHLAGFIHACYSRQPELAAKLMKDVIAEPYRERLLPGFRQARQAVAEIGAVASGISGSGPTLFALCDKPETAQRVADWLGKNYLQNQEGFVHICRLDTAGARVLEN
Assay: Enzyme Inhibition Assay
Settings: pH 7.5; 37 °C
Kindly answer with a numeric value in µM, unit omitted.

Some entries whose results are on file:
Given the entry CC(C)Cc1nc2sc3c(c2c(=O)o1)CCCCC3 , report its measured Ki.
35.8

Suppose we examine the molecule O=C1OC2C=CCC=C2C(=O)C1Cc1c(O)c2ccccc2oc1=O (stereo unspecified) ; what Ki value has been reported?
0.46

Given the entry O=C1C(O)c2cc(O)c(O)cc2OC1c1ccc(O)c(O)c1 (stereo unspecified) , report its measured Ki.
27.1

Ki for CC1NN(c2ccccc2)c2nc(C(F)(F)F)cc(O)c21 (stereo unspecified) ?
8.6

Next:
Look up Ki for this molecule: CC(=O)C(C#N)C(=O)Nc1cc(Br)ccc1Br (stereo unspecified)
12

For the molecule shown here, C=CC(=O)c1ccc2ccccc2c1 , give the reported Ki.
32

FYI, the data here is from BindingDB's records for doi:10.1002/cbic.201100121.
